# assay_target: Cif (Pseudomonas aeruginosa (strain UCBPP-PA14))
# Sequence (A0A0H2ZD27 25-319 limits assumed): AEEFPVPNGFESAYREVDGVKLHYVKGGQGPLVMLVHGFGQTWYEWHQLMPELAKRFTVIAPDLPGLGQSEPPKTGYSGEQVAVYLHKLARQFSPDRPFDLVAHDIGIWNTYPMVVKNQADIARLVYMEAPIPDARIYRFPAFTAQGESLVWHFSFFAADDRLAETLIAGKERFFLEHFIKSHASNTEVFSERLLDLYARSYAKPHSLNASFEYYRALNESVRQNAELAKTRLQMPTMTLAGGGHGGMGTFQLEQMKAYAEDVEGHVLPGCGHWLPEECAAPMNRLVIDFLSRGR
# protocol_notes: Secondary screen (sextuplicate) with fluorogenic substrate CMNGC;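 also: purified enzyme assay in 96-well plates, 200 µL volume, fluorescence recorded each minute across a 60 min reaction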
# Assay type: biochemical
# conditions: read-out: % Inhibition, plate 3
Where a name gives a salt, the structure may show the parent alone.
Quick rule: inhibition at 10 µM of at least 10% means True, below that means False.

Look over these answered cases.
Kindly determine if inhibition at 10 µM recorded for CC1=NN(c2ccccc2)C(=O)C1 is above or exactly 10%. True

CC(=O)[C@@]1(O)CC[C@H]2[C@@H]3C[C@H](C)C4=CC(=O)C=C[C@]4(C)[C@@]3(F)[C@@H](O)C[C@@]21C , same question. True

Nc1nc(N)c2nc(-c3ccccc3)c(N)nc2n1 , same question. True

Cc1cccc(Nc2ccccc2C(=O)O)c1C , same question. True

C=CCc1ccc(O)c(OC)c1 , same question. False

More entries:
Kindly determine if inhibition at 10 µM recorded for CO[C@@]1(NC(=O)Cc2cccs2)C(=O)N2C(C(=O)O)=C(COC(N)=O)CS[C@@H]21 [Cefoxitin sodium] is above or exactly 10%. False

O=C1CC2(CCCC2)CC(=O)N1CCCCN1CCN(c2ncccn2)CC1 [Buspirone hydrochloride] , same question. False

CC(C)Cc1ccc(C(C)C(=O)O)cc1 (stereo not shown) , same question. False

C[C@]12CC[C@@H]3c4ccc(O)cc4CC[C@H]3[C@@H]1CC[C@@H]2O , same question. False

O=C(CCCCCCC(=O)Nc1ccccc1)NO , same question. False
